Listing of recorded normalized growth by entry.
ASSAY_TEXT: chemical genetic growth profiling, strain panel (AID 1159580);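 further: tested at 20 µM; growth read once vehicle control cultures reached saturation at 30 °C; 1 = growth at the plate median or of vehicle wells; lower values mean less growth of the strain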
STUDY_CONDITIONS: S. cerevisiae deletion strains, growth OD, locus YJR016C, strain ILV3, stronger effect = lower value
Hit rate of the full screen: of about 5,500 compounds, about 2,000 (36%) were called active. Roughly 18% stayed inconclusive and do not appear here. The list shows a part of the results.
Reply briefly: the number, and no unit.

Guide cases for normalized growth, answers given:
| MOLECULE | normalized growth |
| --- | --- |
| COc1ccccc1C(C[N+](=O)[O-])c1c(N)n(C)c(=O)n(C)c1=O (centres undefined) | 0.962 |
| Cc1cc(C(=O)O/N=C(/N)c2ccc(C(C)(C)C)cc2)no1 | 0.98 |
| O=C1/C(=C/c2c(F)cccc2Cl)Cc2ccccc21 | 0.965 |
| CC(=O)C(Sc1nc2ccccc2s1)C(C)=O | 0.916 |
| COc1cc(C(=O)Oc2c(Cl)cc(Cl)cc2C=Nc2ccc([N+](=O)[O-])cc2C#N)cc(OC)c1OC | 0.986 |

INPUT: Give the measured normalized growth of CCOC(=O)CCc1cc(N=Cc2cc(Br)ccc2O)c(O)c(N=Cc2cc(Br)ccc2O)c1 .
OUTPUT: 0.968

INPUT: Field entry: N#CC1=C(N)C(C#N)(C#N)C2(CCCCC2)C2CCCC=C12 (centres undefined)
OUTPUT: 0.989

INPUT: Field entry: Cc1onc(-c2ccccc2Cl)c1-c1nc2ccccc2c(=O)o1
OUTPUT: 0.974

INPUT: Field entry: CN(C)/C=C/C(=O)c1ccc(C#Cc2ccccc2)cc1
OUTPUT: 0.974

INPUT: Field entry: COc1ccccc1NC(=O)Nc1nn(C)c2cccc(OC)c12
OUTPUT: 0.928

INPUT: Field entry: CCC1CCC(C)N(C(=S)Nc2ccc(Br)cc2C)C1 (centres undefined)
OUTPUT: 0.964

INPUT: Field entry: CCCCCCCC1CCC/C1=N/OC(=O)c1cccs1 (centres undefined)
OUTPUT: 0.99

INPUT: Field entry: CC(C)(O)C#Cc1ccc(/C=N\Nc2ccccc2)cc1
OUTPUT: 0.948

INPUT: Field entry: NC(=NC(=O)c1ccc(Cl)cc1)c1cccs1
OUTPUT: 0.957

INPUT: Field entry: O=C(Nc1cccc(C(F)(F)F)c1)Oc1ccc(F)cc1Cl
OUTPUT: 0.984

INPUT: Field entry: O=C(Nc1ccccn1)c1cc(-c2ccccc2)c(C(F)(F)F)s1
OUTPUT: 0.951

INPUT: Field entry: OC(c1ccc(C(F)(F)F)cc1)c1cccc(C(F)(F)F)c1 (centres undefined)
OUTPUT: 0.984

INPUT: Field entry: O=C(CO/N=C\c1ccc(Cl)cc1Cl)NNC(=S)Nc1cc(Cl)ccc1Cl
OUTPUT: 1

INPUT: Field entry: CC(C)(O)C#Cc1ccc(/C=N\Nc2c(Cl)cc(Cl)cc2Cl)cc1
OUTPUT: 0.973

###

Listing of recorded normalized growth by entry.
ASSAY_TEXT: chemical genetic growth profiling, strain panel (AID 1159580);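 further: tested at 20 µM; growth read once vehicle control cultures reached saturation at 30 °C; 1 = growth at the plate median or of vehicle wells; lower values mean less growth of the strain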
STUDY_CONDITIONS: S. cerevisiae deletion strains, growth OD, locus YKL160W, strain elf1, stronger effect = lower value
In all, about 5,500 compounds went through this assay and about 2,000 (36%) were called active. Not shown: some 18% with an inconclusive outcome. The list shows a part of the results.
Reply briefly: the number, and no unit.

| COMPOUND | normalized growth |
| --- | --- |
| C[C@](N)(Cc1ccc(O)cc1)C(=O)O | 1.01 |
| O=C(O)P(=O)(O)O | 0.995 |
| CCn1cc(C(=O)O)c(=O)c2ccc(C)nc21 | 0.976 |
| CC(=O)OCC(=O)[C@@]12OC(C)(C)O[C@@H]1CC1C3C[C@H](F)C4=CC(=O)C=C[C@]4(C)[C@@]3(F)[C@@H](O)C[C@@]12C (stereo partly specified) | 1.05 |
| O=C1CN(/N=C\c2ccc([N+](=O)[O-])o2)C(=O)N1 | 0.985 |

INPUT: Give the measured normalized growth of N[C@@H](CCC(=O)N[C@@H](CCSC(CC(=O)O)C(=O)O)C(=O)NCC(=O)O)C(=O)O (stereo partly specified) .
OUTPUT: 0.984

INPUT: Field entry: O=C1N=C(O)CN1/N=C\c1ccc(-c2ccc([N+](=O)[O-])cc2)o1
OUTPUT: 0.994

INPUT: Field entry: CCOC(=O)C(C)(N)Cc1ccc(O)c(O)c1 (stereo unspecified)
OUTPUT: 0.987

INPUT: Field entry: CCN(CC)CCOC(=O)C(Cc1cccc2ccccc12)CC1CCCO1 (stereo unspecified)
OUTPUT: 1

INPUT: Field entry: CC(Cc1ccc(O)c(O)c1)(NN)C(=O)O (stereo unspecified)
OUTPUT: 1.01

INPUT: Field entry: O=C1OCCN1/N=C\c1ccc([N+](=O)[O-])o1
OUTPUT: 0.984

Data credit: PubChem BioAssay AID1159580
